Catalogue of molecules with associated pKi
# targetOfAssay: rat orexin 1 receptor (Rattus norvegicus)
# assayMethodText: Rat orexin 1 receptor radioligand binding
# conditionNotes: rat orexin 1 receptor radioligand binding; averages of 2-20 runs; read-out: rOX1 Ki
Kindly note that pKi refers to -log10 of the concentration in mol/L and answer with the value alone.

Answered cases to consult:
- molecule: "C[C@H]1[C@H](Nc2nc3ccccc3o2)CCCN1C(=O)c1cccc(F)c1-c1ncccn1 (relative stereo)"
  targetOfAssay: "rat orexin 1 receptor (Rattus norvegicus)"
  assayValue: 7.85
- molecule: "Cc1ccc(-n2nccn2)c(C(=O)N2CCC[C@@H](Oc3ncc(C(F)(F)F)cc3F)[C@@H]2C)n1"
  targetOfAssay: "rat orexin 1 receptor (Rattus norvegicus)"
  assayValue: 7.64
- molecule: "Cc1ccc(C(=O)N2CCC[C@@H](Nc3ccc(C(F)(F)F)cn3)[C@@H]2C)c(-n2nccn2)c1 (racemic)"
  targetOfAssay: "rat orexin 1 receptor (Rattus norvegicus)"
  assayValue: 7.80

I'd like to know its pKi. The molecule in question is "C[C@H]1[C@H](Oc2ncc(Cl)cn2)CCCN1C(=O)c1cccc(F)c1-n1nccn1"
6.65

What about this molecule? "C[C@H]1[C@H](Oc2ncc(C(F)(F)F)cc2F)CCCN1C(=O)c1cc(F)ccc1-c1ncccn1"
7.49

What about this molecule? COc1ccc(C(=O)N2CCC[C@@H](Nc3cnc(Cl)cn3)[C@@H]2C)c(-n2nccn2)c1 (relative stereo)
6.56

What about this molecule? "C[C@H]1[C@H](Oc2ccc(C(F)(F)F)cn2)CCCN1C(=O)c1ccccc1-c1ncc(F)cn1"
7.51

What about this molecule? "C[C@H]1[C@H](Oc2ncc(C(F)(F)F)cn2)CCCN1C(=O)c1ccccc1-c1ncc(F)cn1"
7.23

What about this molecule? "COc1ccc(C(=O)N2CCC[C@@H](Oc3cnc(C(F)(F)F)cn3)[C@@H]2C)c(-n2nccn2)c1"
6.35

What about this molecule? "Cc1cnc(C(=O)N2CCC[C@@H](Nc3nc4ccccc4o3)[C@@H]2C)c(-n2nccn2)c1"
8.10

What about this molecule? "C[C@H]1[C@H](Oc2ncc(C(F)(F)F)cc2F)CCCN1C(=O)c1ccc(F)cc1-c1ncccn1"
7.26

What about this molecule? "Cc1cnc(C(=O)N2CCC[C@@H](Oc3ccc(Cl)cn3)[C@@H]2C)c(-c2ncccn2)c1"
7.28

What about this molecule? "Cc1cnc(C(=O)N2CCC[C@@H](Oc3ccc(C(F)(F)F)cn3)[C@@H]2C)c(-n2nccn2)c1"
7.66

What about this molecule? "C[C@H]1[C@H](Oc2ccc(C(F)(F)F)cn2)CCCN1C(=O)c1cccc(F)c1-c1ncccn1"
7.82

What about this molecule? "Cc1cnc(-n2nccn2)c(C(=O)N2CCC[C@@H](Oc3ncc(Cl)cn3)[C@@H]2C)c1"
6.21

---

Measured Ki (human orexin 2 receptor (Homo sapiens (Human), UniProt O43614))
Report the value in nM with no unit label.

Answered cases to consult:
- compound: "Cc1noc(-c2cc(F)ccc2C(=O)N2CCC[C@@H](Nc3ncc(C(F)(F)F)cn3)[C@@H]2C)n1 (relative stereo)"
  resultUnits: "nM"
  Ki: 6600
- compound: "C[C@H]1[C@H](Nc2cnc(C(F)(F)F)cn2)CCCN1C(=O)c1ccc(F)cc1-c1ncco1 (relative stereo)"
  resultUnits: "nM"
  Ki: 1100
- compound: "C[C@H]1[C@H](Oc2cnc(C(F)(F)F)cn2)CCCN1C(=O)c1cc(F)ccc1-c1ncco1"
  resultUnits: "nM"
  Ki: 1900
- compound: "C[C@H]1[C@H](Oc2cnc(C(F)(F)F)cn2)CCCN1C(=O)c1ccccc1-c1ncccn1"
  resultUnits: "nM"
  Ki: 951

I'd like to know its Ki. The compound in question is "Cc1ccc(C(=O)N2CCC[C@@H](Oc3ccc(C(F)(F)F)cn3)[C@@H]2C)c(-n2nccn2)c1"
664

What about this compound? C[C@H]1[C@H](Nc2ncc(C(F)(F)F)cn2)CCCN1C(=O)c1ccc(F)cc1-c1ncccn1 (relative stereo)
1500

---

Measured Ki (human orexin 2 receptor (Homo sapiens (Human), UniProt O43614))
Report the value in µM with no unit label.

Answered cases to consult:
- molecularString: "C[C@H]1[C@H](Oc2ncc(Cl)cn2)CCCN1C(=O)c1cccc(F)c1-n1nccn1"
  Ki (µM): 3.2
- molecularString: "Cc1cnc(-c2ncccn2)c(C(=O)N2CCC[C@@H](Oc3ccc(Cl)cn3)[C@@H]2C)c1"
  Ki (µM): 8.9

Query compound follows.
I'd like to know its Ki. The compound in question is "Cc1cnc(C(=O)N2CCC[C@@H](Oc3ccc(Cl)cn3)[C@@H]2C)c(-c2ncccn2)c1"
8.2

---

# targetOfAssay: human orexin 2 receptor (Homo sapiens (Human), UniProt O43614)
# Sequence (O43614 whole entry): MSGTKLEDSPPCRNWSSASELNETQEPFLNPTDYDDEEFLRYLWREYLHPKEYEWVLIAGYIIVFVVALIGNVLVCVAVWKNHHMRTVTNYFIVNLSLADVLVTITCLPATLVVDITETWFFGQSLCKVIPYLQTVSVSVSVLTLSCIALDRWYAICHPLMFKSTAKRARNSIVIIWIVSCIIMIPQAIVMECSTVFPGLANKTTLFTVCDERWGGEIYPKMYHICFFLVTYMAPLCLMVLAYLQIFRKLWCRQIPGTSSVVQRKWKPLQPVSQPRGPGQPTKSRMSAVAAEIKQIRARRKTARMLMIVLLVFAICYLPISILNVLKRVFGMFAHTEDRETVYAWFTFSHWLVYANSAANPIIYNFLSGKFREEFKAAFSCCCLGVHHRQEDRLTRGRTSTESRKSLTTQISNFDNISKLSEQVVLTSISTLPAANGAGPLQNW
reportedProperty: pKi
Kindly note that pKi refers to -log10 of the concentration in mol/L and answer with the value alone.

Answered cases to consult:
- compound: "Cc1ccc(-n2nccn2)c(C(=O)N2CCC[C@@H](Oc3cnc(C(F)(F)F)cn3)[C@@H]2C)n1 [Example 107]"
  assayValue: 5.64
- compound: "Cc1cccc(C(=O)N2CCC[C@@H](Oc3ccc(C(F)(F)F)cn3)[C@@H]2C)c1-c1ncccn1 [Example 151]"
  assayValue: 6.27
- compound: "C[C@H]1[C@H](Oc2ncc(C(F)(F)F)cc2F)CCCN1C(=O)c1ccc(F)cc1-c1ncccn1 [Example 222]"
  assayValue: 5.89

I'd like to know its pKi. The compound in question is C[C@H]1[C@H](Nc2ncc(C(F)(F)F)cn2)CCCN1C(=O)c1ccc(F)cc1-n1nccn1 (relative stereo) [Example 198]
5.60

What about this compound? Cc1ccc(-n2nccn2)c(C(=O)N2CCC[C@@H](Oc3ncc(C(F)(F)F)cc3F)[C@@H]2C)n1 [Example 160]
6.21

What about this compound? Cc1ccc(-n2nccn2)c(C(=O)N2CCC[C@@H](Oc3ccc(Cl)cn3)[C@@H]2C)n1 [Example 215]
6.43

What about this compound? Cc1ccc(C(=O)N2CCC[C@@H](Nc3nc4ccccc4o3)[C@@H]2C)c(-n2nccn2)n1 [Example 75]
5.05

What about this compound? Cc1cccc(C(=O)N2CCC[C@@H](Oc3ncc(Cl)cn3)[C@@H]2C)c1-n1nccn1 [Example 163]
5.98

What about this compound? C[C@H]1[C@H](Oc2ccc(C(F)(F)F)cn2)CCCN1C(=O)c1ncccc1-c1ncccn1 (relative stereo) [Example 210]
6.13

What about this compound? CCOc1ccc(C)nc1C(=O)N1CCC[C@@H](Nc2ccc(C(F)(F)F)cn2)[C@@H]1C (relative stereo) [Example 194]
6.50

What about this compound? C[C@H]1[C@H](Nc2ccc(Cl)cn2)CCCN1C(=O)c1ccccc1-n1nccn1 [Example 100]
6.72

What about this compound? Cc1ccc(-n2nccn2)c(C(=O)N2CCC[C@@H](Oc3ncc(Cl)cn3)[C@@H]2C)n1 [Example 164]
5.42

---

# targetOfAssay: rat orexin 1 receptor (Rattus norvegicus)
# assayMethodText: Rat orexin 1 receptor radioligand binding
# conditionNotes: rat orexin 1 receptor radioligand binding; averages of 2-20 runs; read-out: rOX1 Ki
reportedProperty: Ki (µM)
Report the value in µM with no unit label.

Answered cases to consult:
- compound: "C[C@H]1[C@H](Oc2ncc(C(F)(F)F)cc2F)CCCN1C(=O)c1cccc(F)c1-c1ncccn1"
  targetOfAssay: "rat orexin 1 receptor (Rattus norvegicus)"
  resultUnits: "µM"
  Ki: 0.028
- compound: "C[C@H]1[C@H](Oc2ncc(C(F)(F)F)cc2F)CCCN1C(=O)c1cccc(F)c1-n1nccn1"
  targetOfAssay: "rat orexin 1 receptor (Rattus norvegicus)"
  resultUnits: "µM"
  Ki: 0.06
- compound: "C[C@H]1[C@H](Oc2ncc(C(F)(F)F)cc2F)CCCN1C(=O)c1ccccc1-n1nccn1"
  targetOfAssay: "rat orexin 1 receptor (Rattus norvegicus)"
  resultUnits: "µM"
  Ki: 0.033

I'd like to know its Ki. The compound in question is "C[C@H]1[C@H](Oc2cnc(C(F)(F)F)cn2)CCCN1C(=O)c1ccccc1-c1ncccn1"
0.029

What about this compound? "COc1ccc(C(=O)N2CCC[C@@H](Nc3ccc(C(F)(F)F)cn3)[C@@H]2C)c(-n2nccn2)c1"
0.033

What about this compound? "Cc1cccc(C(=O)N2CCC[C@@H](Oc3ccc(C(F)(F)F)cn3)[C@@H]2C)c1-c1ncccn1"
0.035

What about this compound? C[C@H]1[C@H](Nc2nc3ccccc3o2)CCCN1C(=O)c1ccc(F)cc1-c1ncccn1 (relative stereo)
0.016

What about this compound? "C[C@H]1[C@H](Oc2ccc(C(F)(F)F)cn2)CCCN1C(=O)c1cccnc1-n1nccn1"
0.353

---

pKi: −log10 of the molar value.
Measured pKi (human orexin 2 receptor (Homo sapiens (Human), UniProt O43614))

- molecularString: "Cc1cnc(-n2nccn2)c(C(=O)N2CCC[C@@H](Oc3ncc(C(F)(F)F)cc3F)[C@@H]2C)c1"
  pKi: "< 5.00"

Item "Cc1cnc(-c2ncccn2)c(C(=O)N2CCC[C@@H](Oc3ccc(C(F)(F)F)cn3)[C@@H]2C)c1" with human orexin 2 receptor (Homo sapiens (Human), UniProt O43614) - pKi?
< 5.00

What about this molecule? "Cc1cnc(C(=O)N2CCC[C@@H](Oc3cnc(C(F)(F)F)cn3)[C@@H]2C)c(-n2nccn2)c1"
< 5.00
